Experiment: Liver-to-plasma partitioning (Kp)
Assay type: in vivo, rat
Details: female, Sprague Dawley (Crl:CD(SD)), rat, liver and plasma, po, 10 mg/kg/day, PFHxSA 10 mg/kg/day oral 5 days; female rats; mean ± SD; read-out: PFHxSA liver-to-plasma Kp, Female Rats
observed_property: Kp at 120 h

compound	quantitative_readout
NS(=O)(=O)C(F)(F)C(F)(F)C(F)(F)C(F)(F)C(F)(F)C(F)(F)F [PFHxSA, Perfluorohexanesulfonamide]	0.135

* * *

Assay: Plasma dosimetry of PFHxSA and PFHxS by targeted LC/MS/MS
Format: in vivo, rat
Conditions: male, Sprague Dawley (Crl:CD(SD)), rat, plasma, oral, 1 mg/kg/day, PFHxSA 1 mg/kg/day oral 5 days; male rats; mean ± SD; read-out: PFHxSA Male Plasma Conc.
observed_property: concentration at 24 h (µM)

compound	quantitative_readout
NS(=O)(=O)C(F)(F)C(F)(F)C(F)(F)C(F)(F)C(F)(F)C(F)(F)F [PFHxSA, Perfluorohexanesulfonamide]	11.4

* * *

Experiment: Liver-to-plasma partitioning (Kp)
Assay type: in vivo, rat
Conditions: male, Sprague Dawley (Crl:CD(SD)), rat, liver and plasma, po, 30 mg/kg/day, PFHxSA 30 mg/kg/day oral 5 days; male rats; mean ± SD; read-out: PFHxSA liver-to-plasma Kp, Male Rats

molecule	Kp at 120 h
NS(=O)(=O)C(F)(F)C(F)(F)C(F)(F)C(F)(F)C(F)(F)C(F)(F)F [PFHxSA, Perfluorohexanesulfonamide]	0.144

* * *

Assay: Liver-to-plasma partitioning (Kp)
Format: in vivo, rat
Conditions: male, Sprague Dawley (Crl:CD(SD)), rat, liver and plasma, po, 1 mg/kg/day, PFHxSA 1 mg/kg/day oral 5 days; male rats; mean ± SD; read-out: PFHxSA liver-to-plasma Kp, Male Rats

molecule	Kp at 120 h
NS(=O)(=O)C(F)(F)C(F)(F)C(F)(F)C(F)(F)C(F)(F)C(F)(F)F [PFHxSA, Perfluorohexanesulfonamide]	0.223

* * *

Test: Plasma dosimetry of PFHxSA and PFHxS by targeted LC/MS/MS
Type: in vivo, rat
Conditions: male, Sprague Dawley (Crl:CD(SD)), rat, plasma, oral, PFHxSA 30 mg/kg/day oral 5 days; male rats; mean ± SD; read-out: PFHxS Male Plasma Conc.

smiles_text	concentration at 24 h [µM]
O=S(=O)(O)C(F)(F)C(F)(F)C(F)(F)C(F)(F)C(F)(F)C(F)(F)F	136

* * *

Assay: Liver dosimetry of PFHxSA and PFHxS by targeted LC/MS/MS
Assay type: in vivo, rat
Details: male, Sprague Dawley (Crl:CD(SD)), rat, liver, oral, 0.3 mg/kg/day, PFHxSA 0.3 mg/kg/day oral 5 days; male rats; mean ± SD; read-out: PFHxSA Male Liver Conc.
observed_property: concentration at 24 h (nM)

molecule	observed_property	quantitative_readout
NS(=O)(=O)C(F)(F)C(F)(F)C(F)(F)C(F)(F)C(F)(F)C(F)(F)F [PFHxSA, Perfluorohexanesulfonamide]	concentration at 24 h	1060

* * *

Experiment: Liver-to-plasma partitioning (Kp)
Type: in vivo, rat
Conditions: male, Sprague Dawley (Crl:CD(SD)), rat, liver/plasma, po, 0.3 mg/kg/day, PFHxSA 0.3 mg/kg/day oral 5 days; male rats; mean ± SD; read-out: PFHxSA liver-to-plasma Kp, Male Rats

compound	Kp at 120 h
NS(=O)(=O)C(F)(F)C(F)(F)C(F)(F)C(F)(F)C(F)(F)C(F)(F)F [PFHxSA, Perfluorohexanesulfonamide]	0.256
